# measured-on: TRPML2 (Homo sapiens, UniProt Q8IZK6)
# Construct: expressed in transfected cells
# Sequence (Q8IZK6 whole entry): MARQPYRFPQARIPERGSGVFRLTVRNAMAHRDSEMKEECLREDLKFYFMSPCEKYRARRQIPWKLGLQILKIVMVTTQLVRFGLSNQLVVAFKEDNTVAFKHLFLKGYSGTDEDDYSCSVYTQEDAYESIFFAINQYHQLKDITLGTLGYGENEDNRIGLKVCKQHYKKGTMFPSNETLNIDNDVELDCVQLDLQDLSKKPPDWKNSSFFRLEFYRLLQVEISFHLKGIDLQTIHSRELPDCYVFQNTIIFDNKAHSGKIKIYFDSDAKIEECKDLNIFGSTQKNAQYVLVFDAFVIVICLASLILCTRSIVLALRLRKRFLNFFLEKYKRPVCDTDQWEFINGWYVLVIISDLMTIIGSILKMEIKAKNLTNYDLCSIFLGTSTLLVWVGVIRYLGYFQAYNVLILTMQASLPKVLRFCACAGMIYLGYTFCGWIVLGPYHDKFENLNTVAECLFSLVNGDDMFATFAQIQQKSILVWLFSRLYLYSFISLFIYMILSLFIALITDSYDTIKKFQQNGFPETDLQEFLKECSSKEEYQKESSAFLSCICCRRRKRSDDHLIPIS
# experimental-details: Fluorescent TRPML2 assay (performed as for TRPML1, substituting the TRPML2 subtype)
# Type: cell-based
compounds and their reported EC50

The following compounds have reported results that may help.
query: Quick one: EC50 of `C[C@@H]1CN(c2nccc3c2c(C(F)(F)F)cn3-c2cc(C#N)ccn2)[C@@H](C)CN1C(=O)OC(C)(C)C` ?
result: 100 to 500 nM

query: Quick one: EC50 of `[2H]C([2H])([2H])[C@@H]1CN(c2ncnc3c2c(C(F)F)cn3-c2cc(C#N)ccn2)[C@@H](C)CN1C(=O)OC(C)(C)C` ?
result: 500 to 2000 nM

Could you now consider this next compound?
query: Quick one: EC50 of `C[C@@H]1CN(c2ncnc3c2c(C(F)(F)F)cn3-c2cncc(C#N)c2)[C@@H](C)CN1C(=O)OC(C)(C)C` ?
result: 100 to 500 nM
